// data source = patent US20070299092A1

- Test target: KDR (Homo sapiens, UniProt P35968)
- Sequence (P35968 20-1356): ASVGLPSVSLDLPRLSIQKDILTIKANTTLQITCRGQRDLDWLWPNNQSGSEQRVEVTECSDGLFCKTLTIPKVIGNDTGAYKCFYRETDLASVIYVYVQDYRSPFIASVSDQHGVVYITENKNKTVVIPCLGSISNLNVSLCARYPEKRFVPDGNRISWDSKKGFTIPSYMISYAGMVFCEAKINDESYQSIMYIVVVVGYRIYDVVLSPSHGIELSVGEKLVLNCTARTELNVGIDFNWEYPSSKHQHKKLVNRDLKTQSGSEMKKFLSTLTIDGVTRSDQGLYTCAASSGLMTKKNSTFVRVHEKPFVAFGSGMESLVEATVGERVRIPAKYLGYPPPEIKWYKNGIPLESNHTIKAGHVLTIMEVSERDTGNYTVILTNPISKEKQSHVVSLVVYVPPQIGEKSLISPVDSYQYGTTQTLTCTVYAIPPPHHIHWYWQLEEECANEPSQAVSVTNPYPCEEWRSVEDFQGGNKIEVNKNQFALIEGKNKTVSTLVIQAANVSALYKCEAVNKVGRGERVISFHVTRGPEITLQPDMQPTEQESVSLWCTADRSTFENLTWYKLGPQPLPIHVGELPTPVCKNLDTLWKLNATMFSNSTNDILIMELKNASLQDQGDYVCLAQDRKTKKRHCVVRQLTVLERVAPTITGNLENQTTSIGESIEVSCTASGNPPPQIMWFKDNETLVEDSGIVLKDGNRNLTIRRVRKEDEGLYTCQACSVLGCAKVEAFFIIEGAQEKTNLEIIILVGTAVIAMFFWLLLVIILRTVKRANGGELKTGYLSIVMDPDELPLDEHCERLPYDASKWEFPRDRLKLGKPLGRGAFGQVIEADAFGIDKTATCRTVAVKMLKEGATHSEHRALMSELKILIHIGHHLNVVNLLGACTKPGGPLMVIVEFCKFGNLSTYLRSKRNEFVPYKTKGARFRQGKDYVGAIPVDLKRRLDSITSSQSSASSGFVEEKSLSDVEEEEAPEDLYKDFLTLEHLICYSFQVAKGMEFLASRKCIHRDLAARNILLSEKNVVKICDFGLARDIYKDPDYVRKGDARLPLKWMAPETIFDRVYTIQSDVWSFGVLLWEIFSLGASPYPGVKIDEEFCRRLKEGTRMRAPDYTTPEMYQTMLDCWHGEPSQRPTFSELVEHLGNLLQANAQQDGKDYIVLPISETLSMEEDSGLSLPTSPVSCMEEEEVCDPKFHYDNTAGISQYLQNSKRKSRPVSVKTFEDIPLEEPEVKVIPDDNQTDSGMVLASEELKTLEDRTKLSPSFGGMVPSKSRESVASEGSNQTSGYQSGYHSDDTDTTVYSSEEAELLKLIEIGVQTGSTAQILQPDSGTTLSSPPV
- Assay procedure: cell-based
- Experimental context: read-out: % Inhibition of KDR kinase autophosphorylation in KDR15 cells, compound conc. 1000 nM
Quantity kind: inhibition at 1 µM (%)
The reply should contain only the number, in %.

What value of inhibition at 1 µM on KDR (Homo sapiens, UniProt P35968) does COCCOc1cc2ncnc(NC3=CC(=O)C(Oc4cccc(Cl)c4)=CC3=O)c2cc1OC [Example 33] have?
19

What value of inhibition at 1 µM on KDR (Homo sapiens, UniProt P35968) does COCCOc1cc2ncnc(NC3=CC(=O)C4(Cc5ccccc5)OC4C3=O)c2cc1OC (stereo not drawn) [Example 108] have?
68

What value of inhibition at 1 µM on KDR (Homo sapiens, UniProt P35968) does COCCOc1cc2ncnc(NC3=CC(=O)C(N(C)Cc4ccccc4)=CC3=O)c2cc1OC [Example 82] have?
12

What value of inhibition at 1 µM on KDR (Homo sapiens, UniProt P35968) does COCCOc1cc2ncnc(NC3=C(Sc4ccccc4)C(=O)C=C(OC)C3=O)c2cc1OC [Example 18] have?
27

What value of inhibition at 1 µM on KDR (Homo sapiens, UniProt P35968) does CCOC(=O)Cc1ccc(OC2=CC(=O)C(Nc3ncnc4cc(OCCOC)c(OC)cc34)=CC2=O)cc1 [Example 37] have?
11

What value of inhibition at 1 µM on KDR (Homo sapiens, UniProt P35968) does COCCOc1cc2ncnc(NC3=C(SCc4ccccc4)C(=O)C=C(OC)C3=O)c2cc1OC [Example 19] have?
-10

What value of inhibition at 1 µM on KDR (Homo sapiens, UniProt P35968) does COCCOc1cc2ncnc(NC3=CC(=O)C(Oc4ccc(Br)cc4)=CC3=O)c2cc1OC [Example 46] have?
79

What value of inhibition at 1 µM on KDR (Homo sapiens, UniProt P35968) does COc1cc2ncnc(NC3=CC(=O)C(C)=CC3=O)c2cc1OC [Example 4] have?
100

What value of inhibition at 1 µM on KDR (Homo sapiens, UniProt P35968) does COCCOc1cc2ncnc(NC3=CC(=O)C(Oc4cccnc4)=CC3=O)c2cc1OC [Example 91] have?
55
